molecular target: His-tagged IDO1 human recombinant protein (71182, BPS Biosciences) (human) (UniProt P14902); experiment: ELISA
Sequence (P14902 2-403 limits assumed): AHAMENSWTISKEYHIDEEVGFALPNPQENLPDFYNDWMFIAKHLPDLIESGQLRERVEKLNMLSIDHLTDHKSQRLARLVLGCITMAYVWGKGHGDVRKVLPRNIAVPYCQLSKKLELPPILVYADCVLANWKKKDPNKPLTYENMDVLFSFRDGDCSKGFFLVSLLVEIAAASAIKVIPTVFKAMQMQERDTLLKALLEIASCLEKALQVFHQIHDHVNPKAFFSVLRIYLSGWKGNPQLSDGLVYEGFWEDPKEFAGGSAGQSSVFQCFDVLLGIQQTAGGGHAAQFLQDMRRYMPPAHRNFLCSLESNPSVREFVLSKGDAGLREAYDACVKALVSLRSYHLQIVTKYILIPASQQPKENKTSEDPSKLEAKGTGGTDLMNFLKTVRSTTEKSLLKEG
pEC50: −log10 of the molar value. Square brackets hold non-standard residues; d marks the D form. Ends that are not written are not given here.
quantity_name: pEC50

I = [dW][dY][dV][dA][dY] (triazole (positions not given here); also: ring closed by flanking Pra and Az4, not in chain) [wyvay macrocycle]
II = WYRAY (all D-amino acids; ring closed by triazole between flanking N-terminal Pra and C-terminal Az4; N-terminal biotin-PEG3) [biotin-PEG3-Cy(wyray)]
[Q] Compare the recorded pEC50 of I and II ; state which is larger. Select an item and report its label.
[A] II
(II: 7.60, I: 7.35)
